assayed-target: T1, huCTLA4 (antigen of the Octet experiments) (human, UniProt P16410 37-162, limits assumed)
T1 construct: Construct of the soluble antigen not described; also called the antigen
T1 sequence (P16410 37-162 limits assumed): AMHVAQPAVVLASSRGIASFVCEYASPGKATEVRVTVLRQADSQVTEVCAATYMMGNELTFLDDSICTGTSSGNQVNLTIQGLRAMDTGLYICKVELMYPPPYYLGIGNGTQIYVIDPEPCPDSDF
method: BLI (Octet Red96), antibody on anti-hIgG Fc biosensor, huCTLA4 in solution, 1:1 fit
assay-readout: kon (M⁻¹ s⁻¹)
Provide the reading as a plain figure in M⁻¹ s⁻¹.

INPUT: Provide kon value for the following binder: Humanized HC1 + LC1 (PP4630) (antibody, IgG1, V domains shown, Humanized L3D10; also called H3106 + L3106) VH: QVQLQESGPGLVKPSETLSLTCTVSGFSLTSYGLSWIRQPPGKGLEWIGYIWYDGNTNFHPSLKSRVTISKDTSKNQFSLKLSSVTAADTAVYYCAKTEGHYYGSNYGYYALDYWGQGTSVTVSS VL: DIQMTQSPSSLSASVGDRVTITCRASENIYSNLAWYQQKPGKAPKLLLYAATNLQSGVPSRFSGSGSGTDFTLTISSLQPEDFATYYCQHLWGTPYTFGGGTKLEIK
OUTPUT: 130000

Taken from patent US20190127468A1.
